Tested on: E. coli clinical isolates
ASSAY_METHOD_TEXT: MIC on panel of E. coli clinical isolates
Assay type: cell-based
SETUP_CONDITIONS: strain SEC032
Output fulfilled for records whose MIC is lower than 1 µg/mL, not fulfilled for records at or above 1 µg/mL.

Q: Quick check: MIC of C[C@@H](O)[C@H]1C(=O)N2C(C(=O)O)=C(S[C@@H]3CN[C@H](C(=O)N(C)C)C3)[C@H](C)[C@H]12 [meropenem, reference compound] under 1 µg/mL?
Ans: fulfilled

Q: Quick check: MIC of O=C1CN(/N=C/c2ccc([N+](=O)[O-])o2)C(=O)N1 [nitrofurantoin, reference compound] under 1 µg/mL?
Ans: not fulfilled

Q: Quick check: MIC of CNC(C)C1CCC(N)C(OC2C(N)CC(N)C(OC3OCC(C)(O)C(NC)C3O)C2O)O1 (stereo not drawn) [gentamicin, reference compound] under 1 µg/mL?
Ans: not fulfilled

Q: Quick check: MIC of "COc1cc(-c2csc(NC(=O)c3ccc([N+](=O)[O-])s3)n2)ccc1Cl" under 1 µg/mL?
Ans: not fulfilled

Q: Quick check: MIC of "O=C(Nc1nc(-c2ccc(F)cc2F)cs1)c1ccc([N+](=O)[O-])s1" under 1 µg/mL?
Ans: not fulfilled

* * *

Test system: E. coli clinical isolates
ASSAY_METHOD_TEXT: MIC on panel of E. coli clinical isolates
Assay type: cell-based
SETUP_CONDITIONS: strain SEC049
Please go through the items and note down their MIC.
Quick note: give the figure in µg/mL, leave out the unit.

Q: MIC for O=C1CN(/N=C/c2ccc([N+](=O)[O-])o2)C(=O)N1 [nitrofurantoin, reference compound] ?
Ans: 40

Q: MIC for CNC(C)C1CCC(N)C(OC2C(N)CC(N)C(OC3OCC(C)(O)C(NC)C3O)C2O)O1 (stereo not drawn) [gentamicin, reference compound] ?
Ans: 4

Q: MIC for COc1cc(-c2csc(NC(=O)c3ccc([N+](=O)[O-])s3)n2)ccc1Cl [compound 20] ?
Ans: 8

Q: MIC for O=C(Nc1nc(-c2ccc(F)cc2)cs1)c1ccc([N+](=O)[O-])s1 [compound 15] ?
Ans: 8

Q: MIC for O=C(Nc1nc(-c2ccc(F)cc2F)cs1)c1ccc([N+](=O)[O-])s1 [compound 12] ?
Ans: 32

Q: MIC for C[C@@H](O)[C@H]1C(=O)N2C(C(=O)O)=C(S[C@@H]3CN[C@H](C(=O)N(C)C)C3)[C@H](C)[C@H]12 [meropenem, reference compound] ?
Ans: 0.5

* * *

ASSAY_METHOD_TEXT: Intravenous pharmacokinetics
Type: in vivo, BALB/c mice
SETUP_CONDITIONS: BALB/c, mouse, in vivo; mice, single IV dose 2 mg/kg
Please go through the items and note down their AUC(0-t).
Quick note: give the figure in ng·h/mL, leave out the unit.

Q: AUC(0-t) for "O=C(Nc1nc(-c2ccc(F)cc2F)cs1)c1ccc([N+](=O)[O-])s1" ?
Ans: 570

Q: AUC(0-t) for "O=C(Nc1nc(-c2ccc(F)cc2)cs1)c1ccc([N+](=O)[O-])s1" ?
Ans: 900

* * *

Please go through the items and note down their MIC.
Tested on: E. coli clinical isolates
ASSAY_METHOD_TEXT: MIC on panel of E. coli clinical isolates
Type: cell-based
SETUP_CONDITIONS: strain SEC005

Q: MIC for "O=C(Nc1nc(-c2ccc(F)cc2)cs1)c1ccc([N+](=O)[O-])s1" ?
Ans: 0.5 µg/mL

Q: MIC for "COc1cc(-c2csc(NC(=O)c3ccc([N+](=O)[O-])s3)n2)ccc1Cl" ?
Ans: 8 µg/mL

Q: MIC for O=C1CN(/N=C/c2ccc([N+](=O)[O-])o2)C(=O)N1 [nitrofurantoin, reference compound] ?
Ans: 40 µg/mL

Q: MIC for C[C@@H](O)[C@H]1C(=O)N2C(C(=O)O)=C(S[C@@H]3CN[C@H](C(=O)N(C)C)C3)[C@H](C)[C@H]12 [meropenem, reference compound] ?
Ans: 0.06 µg/mL

Q: MIC for CNC(C)C1CCC(N)C(OC2C(N)CC(N)C(OC3OCC(C)(O)C(NC)C3O)C2O)O1 (stereo not drawn) [gentamicin, reference compound] ?
Ans: > 64 µg/mL

Q: MIC for "O=C(Nc1nc(-c2ccc(F)cc2F)cs1)c1ccc([N+](=O)[O-])s1" ?
Ans: 4 µg/mL
